compounds and their reported IC50
# assay system: UniProt P0DMS8
# Sequence (P0DMS8 whole entry): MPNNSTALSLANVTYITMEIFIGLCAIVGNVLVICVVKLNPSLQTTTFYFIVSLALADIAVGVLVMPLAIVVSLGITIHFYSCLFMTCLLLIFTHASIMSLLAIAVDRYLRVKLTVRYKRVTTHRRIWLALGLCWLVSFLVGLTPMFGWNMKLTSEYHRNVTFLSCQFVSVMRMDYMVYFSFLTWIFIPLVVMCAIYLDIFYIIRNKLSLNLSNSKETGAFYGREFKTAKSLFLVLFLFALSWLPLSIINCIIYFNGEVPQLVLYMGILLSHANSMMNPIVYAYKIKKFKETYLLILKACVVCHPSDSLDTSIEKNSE
# test: Antagonist activity at human A3 receptor expressed in CHO cells assessed as inhibition of Cl-IB-MECA-induced cAMP production by scintillation counting method
observation type: IC50 (nM)

{"given smiles": "O=C(Nc1nc(-c2cccs2)nc2cn(-c3ccccc3)nc12)c1cccs1", "observation type": "IC50", "unit": "nM", "readout number": 5.59}
{"given smiles": "O=C(Nc1nc(-c2cccs2)nc2cn(-c3ccccc3)nc12)c1ccccc1", "observation type": "IC50", "unit": "nM", "readout number": 5.32}
{"given smiles": "O=C(Nc1nc(-c2cccs2)nc2cn(-c3ccccc3)nc12)c1ccco1", "observation type": "IC50", "unit": "nM", "readout number": 5.47}
{"given smiles": "O=C(c1ccco1)N(C(=O)c1ccco1)c1nc(-c2cccs2)nc2cn(-c3ccccc3)nc12", "observation type": "IC50", "unit": "nM", "readout number": 4.37}
{"given smiles": "O=C(Cc1ccccc1)Nc1nc(-c2cccs2)nc2cn(-c3ccccc3)nc12", "observation type": "IC50", "unit": "nM", "readout number": 8.45}

###

# assay system: Adenosine receptor A3 (Rattus norvegicus, UniProt P28647)
# Sequence (P28647 whole entry): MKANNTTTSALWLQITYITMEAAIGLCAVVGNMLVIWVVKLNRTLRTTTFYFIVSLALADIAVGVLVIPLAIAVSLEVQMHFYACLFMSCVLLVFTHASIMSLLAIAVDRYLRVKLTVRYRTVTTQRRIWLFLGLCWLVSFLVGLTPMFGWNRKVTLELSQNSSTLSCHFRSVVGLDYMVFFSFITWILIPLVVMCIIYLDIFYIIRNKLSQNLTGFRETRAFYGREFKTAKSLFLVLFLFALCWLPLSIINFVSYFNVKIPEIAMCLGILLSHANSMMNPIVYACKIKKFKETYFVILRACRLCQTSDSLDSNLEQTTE
molecules and their reported Ki

{"given smiles": "O=C(Nc1nc(-c2cccs2)nc2cn(-c3ccccc3)nc12)c1ccncc1", "Ki": "> 10 µM"}
{"given smiles": "COc1ccc(-c2nc(NC(=O)c3ccccc3)c3nn(-c4ccccc4)cc3n2)cc1", "Ki": "> 10 µM"}
{"given smiles": "COc1ccc(C(=O)Nc2nc(-c3ccc(OC)cc3)nc3cn(-c4ccccc4)nc23)cc1", "Ki": "> 10 µM"}

###

# assay system: UniProtKB P30542
# Sequence (P30542 whole entry): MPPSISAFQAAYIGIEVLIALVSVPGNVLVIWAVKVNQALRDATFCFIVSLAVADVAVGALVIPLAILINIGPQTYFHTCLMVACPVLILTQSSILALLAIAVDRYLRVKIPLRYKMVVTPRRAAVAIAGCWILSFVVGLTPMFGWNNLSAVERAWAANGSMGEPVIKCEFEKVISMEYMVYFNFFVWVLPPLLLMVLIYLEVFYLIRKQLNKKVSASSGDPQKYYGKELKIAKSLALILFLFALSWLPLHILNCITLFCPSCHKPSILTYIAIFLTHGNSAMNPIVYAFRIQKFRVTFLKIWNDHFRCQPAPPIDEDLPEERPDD
# test: Displacement of [3H]DPCPX at human A1 receptor expressed in CHO cell membrane at 1 uM after 120 mins by scintillation counting method
# Format: cell membranes
Use Yes when the recorded inhibition is no lower than 7%; use No when it is lower.

{"given smiles": "COc1ccc(C(=O)Nc2nc(-c3ccc(OC)cc3)nc3cn(-c4ccccc4)nc23)cc1", "discrete label": "No"}
{"given smiles": "O=C(Nc1nc(-c2ccccc2)nc2cn(Cc3ccccc3)nc12)c1ccccc1", "discrete label": "Yes"}
{"given smiles": "Nc1nc(-c2ccc(O)cc2)nc2cn(-c3ccccc3)nc12", "discrete label": "Yes"}
{"given smiles": "Cc1ccc(-c2nc3cn(-c4ccccc4)nc3c(=O)[nH]2)o1", "discrete label": "No"}
{"given smiles": "O=C(Cc1ccccc1)Nc1nc(-c2cccs2)nc2cn(-c3ccccc3)nc12", "discrete label": "Yes"}
{"given smiles": "COc1ccc(-c2nc(NC(=O)c3ccccc3)c3nn(-c4ccccc4)cc3n2)cc1", "discrete label": "No"}
{"given smiles": "O=c1[nH]c(-c2cccs2)nc2cn(-c3ccccc3)nc12", "discrete label": "No"}
{"given smiles": "Cn1cc2nc(-c3ccccc3)nc(N)c2n1", "discrete label": "Yes"}
{"given smiles": "Cc1nc2nn(-c3ccccc3)nc2c(=O)[nH]1", "discrete label": "Yes"}
{"given smiles": "O=C(Nc1nc(-c2cccs2)nc2cn(-c3ccccc3)nc12)c1ccccc1", "discrete label": "No"}
{"given smiles": "COc1ccc(-n2cc3nc(-c4cccs4)[nH]c(=O)c3n2)cc1", "discrete label": "No"}
{"given smiles": "COc1ccc(-c2nc3cn(C)nc3c(=O)[nH]2)cc1", "discrete label": "No"}
{"given smiles": "O=c1[nH]c(-c2ccccc2)nc2nn(-c3ccccc3)nc12", "discrete label": "Yes"}
{"given smiles": "COc1ccc(-n2cc3nc(-c4cccs4)nc(N)c3n2)cc1", "discrete label": "Yes"}
{"given smiles": "O=C(Nc1nc(-c2ccccc2)nc2cn(-c3ccccc3)nc12)c1cccs1", "discrete label": "Yes"}
{"given smiles": "O=c1[nH]c(-c2ccccc2)nc2cn(Cc3ccccc3)nc12", "discrete label": "No"}
{"given smiles": "COc1ccc(-c2nc(NC(=O)c3ccncc3)c3nn(-c4ccccc4)cc3n2)cc1", "discrete label": "No"}
{"given smiles": "COc1ccc(-c2nc(N)c3nn(-c4ccccc4)cc3n2)cc1", "discrete label": "Yes"}
{"given smiles": "Nc1nc(-c2ccccc2)nc2nn(-c3ccccc3)nc12", "discrete label": "Yes"}
{"given smiles": "Cc1nc2cn(-c3ccccc3F)nc2c(=O)[nH]1", "discrete label": "No"}
{"given smiles": "Cn1cc2nc(-c3ccccc3)[nH]c(=O)c2n1", "discrete label": "No"}
{"given smiles": "Nc1nc(-c2ccc(Cl)cc2)nc2cn(-c3ccccc3)nc12", "discrete label": "Yes"}

Where do the numbers come from? From ChEMBL document CHEMBL3751669.
